Experiment: soluble fraction after stress (log2 fold change); higher = more stays soluble; pooled small domains, quantitative proteomics
Conditions: stress: pH 4
Measured quantity: soluble fraction (log2)
The reply should be a number, written without any unit.

For this sequence ( HMNDYIGVDRAKEIALNHARMNESDVQFAKAKLENDDGVVEYEIEFYFGRTEYDYTIDAVSGNIIEYDVEY ), measured soluble fraction (log2) is -0.0067

# ---- query sequence ----
For this sequence ( HMQVPFGFQRNPSTGTLEEKAEEQLIINQVLSLKNSGIGVSEISKRLGELSVSRIYRIINTAKKNAS ), measured soluble fraction (log2) is -0.107

----------
Experiment: soluble fraction after stress (log2 fold change); higher = more stays soluble; pooled small domains, quantitative proteomics
Details: stress: pH 4
Measured quantity: soluble fraction (log2)
The reply should be a number, written without any unit.

Examples with their reported soluble fraction (log2) follow.
For this sequence ( HMKESRLFRILYYLLQHKKATAPELAEEFEVSVRTIYRDIDYISSAGVPIYATQGKDGGIAILDSF ), measured soluble fraction (log2) is -0.81

For this sequence ( HMNANTILNSQRILTQLGFNPGPIDGAFGAKTKGALNAFYTSIGKSYDGLLDSNELVELQKALDVSGLKN ), measured soluble fraction (log2) is -0.198

For this sequence ( HMRIWTISDLYKNVEDKKVSLAVFSEDNDSNKVNVLDINGEEHSVNLLKADLPTLVDLFRKNDVRFAVRSN ), measured soluble fraction (log2) is 0.259

Next:
For this sequence ( HMETKVIVPKVTGMNSKSAINYLSARGLKYKAVPADSGKSFHVVDQYPKSGTKVSPHSTVYLYS ), measured soluble fraction (log2) is 0.386

For this sequence ( HMTVSADQTTADAVIKLIDAIGTVSKNSGSAISAARSGYDALTDAQKKLVTNYNKLTQAEQVFSSLS ), measured soluble fraction (log2) is -0.165

For this sequence ( HMLISDENMLRDLVQAVLDENPKSVSDYKSGKTKAFGFLVGQTMKAVKGQADPMLVNKILTELLN ), measured soluble fraction (log2) is -0.0698

For this sequence ( HMDRFRYYITEDSVQRGTYPYVDETTLKRFTSQLHKYEQGMISAYGYLEYSKPLTAEQIKDYTLMPSP ), measured soluble fraction (log2) is -0.485

For this sequence ( HMEKKSKLVLAVLQGSDSDNTIRNLNERGFMVTVLSSTGGFLKKKSTTVMIGVEEDRLEEALDVLQKYAG ), measured soluble fraction (log2) is -0.617

----------
Experiment: soluble fraction after stress (log2 fold change); higher = more stays soluble; pooled small domains, quantitative proteomics
Settings: stress: pH 4
Listing: soluble fraction (log2) of selected sequences
The reply should be a number, written without any unit.

Examples with their reported soluble fraction (log2) follow.
For this sequence ( HMAPLADQIVDLLKEHDGFLPLHDNSSPEDIRATVGTSKKAFKQAIGGLFREKRIVIGPTGIRLIS ), measured soluble fraction (log2) is 0.146

For this sequence ( HMGPAYQTQRQEAFAALSEIAAKNPQLMQVAGDLVFRAADFPMADELADRLAKTLPPQLQDKKGQP ), measured soluble fraction (log2) is -0.313

For this sequence ( HMLTIQNYFNQVKNIDWEQVPAALSKGHQLVEGASQNNWSAYHSNANIQRVVEAYFQKLNDYLEKN ), measured soluble fraction (log2) is -0.168

For this sequence ( HMLLNPFERLTERELEIADLYAKGYGNLEIANFLSIKQNTVSTYKKRIFEKLGIDNLVELIELIKNY ), measured soluble fraction (log2) is -0.839

For this sequence ( HMSRYAFEGNVVRLNQKDFDSWKALFTNIDLVSELTRLDIEFTHDKPKNWFSTASAKLNYQNKNAY ), measured soluble fraction (log2) is -0.903

Next:
For this sequence ( HMNLDELGNRIREQRIKQRLKQQDIANALMLSAQAVSKWERGENAPDISVLPDLVKILGVSVDWLLTGP ), measured soluble fraction (log2) is -1.15
